# assayInfo: photoluminescence quantum yield (fraction); solvent given as SMILES
# protocolConditions: in ClC(Cl)Cl
Cut-off 0.3 on photoluminescence quantum yield: below means 1, at or above means -1.

[[record]]
compound = "COc1ccc2c(-c3nc(-c4cccc(Br)c4)no3)cc(=O)oc2c1"
group = -1

[[record]]
compound = "O=C1c2ccccc2-c2ccc(N3CCN(c4ccccc4)CC3)c3cccc1c23"
group = -1

[[record]]
compound = "CCCCCCN1C(=O)c2cccc3cc(/N=C\\c4cnc5ccccc5c4)cc(c23)C1=O"
group = 1

[[record]]
compound = "COc1ccc(C2=[N+]3C(=Nc4c(-c5ccccc5)c(Br)c(-c5ccc(OC)cc5)n4[B-]3(F)F)C(c3ccccc3)=C2Br)cc1"
group = 1

[[record]]
compound = "COc1cc(C=C(C#Cc2ccccc2)C#Cc2ccccc2)c(OC)cc1C=C(C#Cc1ccccc1)C#Cc1ccccc1"
group = -1

[[record]]
compound = "CCCCC1=Cc2c3ccc4cccc5ccc(c6cc(-c7ccccc7)n(c26)P1(=O)c1ccccc1)c3c45 (stereo not drawn)"
group = -1

[[record]]
compound = "Cc1cc(-c2ccc(-c3ccccc3)cc2)nc(-c2ccc(-n3c4ccccc4c4ccccc43)cc2)n1"
group = -1


Now for another entry.
Ask | In plain terms, does CCCCCCCCCCCCOc1cc2c3c(ccc4c5c(OCCCCCCCCCCCC)cc6c7c(ccc(c1c34)c75)C(=O)N(C1CCCCC1)C6=O)C(=O)N(C1CCCCC1)C2=O come in under 0.3 for photoluminescence quantum yield?
Reply | -1

Hey, just so you know, these numbers are from the Deep4Chem optical property database.
